ASSAY: Caco-2 permeability
Format: in vitro ADME
STUDY_CONDITIONS: human, Caco-2, pH 7.4

{"MOLECULE": "CC(=O)Nc1sc2c(c1-c1nc3ccccc3s1)CCN(C(C)C)C2 [Compound 3]", "Papp / ×10⁻⁶ cm/s": 500}
{"MOLECULE": "CC(=O)Nc1sc2c(c1-c1nc3ccccc3s1)CNC2 [Compound 52]", "Papp / ×10⁻⁶ cm/s": 680}

---

MEASUREMENT_TARGET: UniProt:P27695
Sequence (P27695 whole entry): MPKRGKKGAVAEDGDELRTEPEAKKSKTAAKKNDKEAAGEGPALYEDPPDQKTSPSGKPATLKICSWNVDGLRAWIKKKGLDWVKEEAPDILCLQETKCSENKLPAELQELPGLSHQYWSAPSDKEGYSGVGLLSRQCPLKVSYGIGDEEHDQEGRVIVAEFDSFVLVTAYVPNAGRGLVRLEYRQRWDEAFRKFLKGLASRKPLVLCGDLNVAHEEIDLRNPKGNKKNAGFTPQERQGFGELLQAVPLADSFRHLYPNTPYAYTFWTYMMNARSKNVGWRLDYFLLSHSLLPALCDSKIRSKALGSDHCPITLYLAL
ASSAY: fluorescence-based qHTS assay of APE1 endonuclease activity
Assay type: biochemical
PROPERTY_NAME: activity against APE1 in the qHTS assay, in words

{"GIVEN_SMILES": "CC(C)(C)C(=O)Nc1sc2c(c1-c1nc3ccccc3s1)CCNC2", "MEASUREMENT_TARGET": "UniProt:P27695", "ASSAY_RESULT": "inactive"}
{"GIVEN_SMILES": "O=C(CCc1ccccc1)Nc1sc2c(c1-c1nc3ccccc3s1)CCNC2", "MEASUREMENT_TARGET": "UniProt:P27695", "ASSAY_RESULT": "inactive"}
